test system: HCT116; assay: efficacy (fitted maximal change in viability relative to DMSO control); higher = less cytotoxic (negative = loss of viability); conditions: 48 h
Structures can show the parent of a compound that is named as a salt.
Kindly state efficacy for each of the entries shown.
Give bare numbers, in %.

Provide reported efficacy for each item, in the same order as listed.
1. CCN1CCN(Cc2ccc(Nc3ncc(F)c(-c4cc(F)c5nc(C)n(C(C)C)c5c4)n3)nc2)CC1
2. C=C1C(=O)O[C@H]2C[C@H](C)C(/C=C/C(C)=O)=CC[C@H]12
3. COc1cc(N2CCC(N3CCN(C)CC3)CC2)ccc1Nc1ncc(Cl)c(Nc2ccccc2[S+](=O)([O-])C(C)C)n1
4. CN(C)C[C@@H]1CC[N]2C=C(C3=C2C=CC=C3)C/4=C(/C(=O)NC4=O)C5=C[N](CCO1)C6=C5C=CC=C6 [Ruboxistaurin mesylate]

Result:
1: -109; 2: -76; 3: -110; 4: -102

Provide reported efficacy for each item, in the same order as listed.
1. Cc1c(NC(=O)c2cc(C(N)=O)nc3cc(F)ccc23)c(C(F)(F)F)nn1Cc1ccc(C#N)cc1
2. C=C(C)[C@H]1Cc2c(ccc3c2O[C@@H]2COc4cc(OC)c(OC)cc4[C@@H]2C3=O)O1
3. Oc1ccc(-c2ccc(-c3cc(Nc4cccc(CNC5CC5)c4)[nH]n3)cc2)c(O)c1
4. COc1ccc(Cl)c(Nc2nc3ccccc3nc2N[S+](=O)([O-])c2cccc(NC(=O)C(C)(C)N)c2)c1
5. CC(NC1=NC=NC2=C1[NH]C=N2)\C3=C\C4=C(C(=CC=C4)Cl)C(=O)N3C5=CC=CC=C5 (stereo unspecified)
6. Nc1ncnc2c1c(-c1cnc3[nH]ccc3c1)nn2C1CCCC1
7. CCc1cccc2c3c([nH]c12)[C@@](CC)(CC(=O)O)OCC3
8. CC1=C(C)C\2=C(S1)[N]3C(=NN=C3C(CC(N)=O)\N=C2C4=CC=C(Cl)C=C4)C (stereo unspecified)

Result:
1. -89.3
2. -64.9
3. -77.1
4. -39.5
5. -58.5
6. -86.5
7. -22.7
8. -62.8

Provide reported efficacy for each item, in the same order as listed.
1. Nc1nc(OCc2cc(Br)cs2)c2[nH]cnc2n1
2. CC1=C(/C=C/C(C)=C/C=C/C(C)=C/C(=O)O)C(C)(C)CCC1
3. CCC1=C2CN3C(=O)\C4=C(/C=C3/C2=NC5=CC=C(O)C=C15)[C@@](O)(CC)C(=O)OC4

Result:
-56
-22.5
-79.2

Request: // efficacy lookup, key: C[C@@H](NCCCc1cccc(C(F)(F)F)c1)c1cccc2ccccc12 [Cinacalcet hydrochloride]
Result: -92.6

----------
system: HCT116; assay: efficacy (fitted maximal change in viability relative to DMSO control); higher = less cytotoxic (negative = loss of viability); details: 48 h
Structures can show the parent of a compound that is named as a salt.
Kindly state efficacy for each of the entries shown.
Answers are plain numbers, in %.

[
  {
    "compound": "O=C(Nc1ccc(F)c(C(F)(F)F)c1)Nc1nnc(-c2ccncc2)s1",
    "metric": "efficacy",
    "unit of measure": "%",
    "observed result": -29
  },
  {
    "compound": "Cn1cc(-c2ccc(F)c(C(F)(F)F)c2)nc1C1CCN(c2ncnc3[nH]ncc23)CC1",
    "metric": "efficacy",
    "unit of measure": "%",
    "observed result": -40.4
  },
  {
    "compound": "CCCCC(F)(F)[C@@]1(O)CC[C@H]2[C@@H](CC(=O)[C@@H]2CCCCCCC(=O)O)O1",
    "metric": "efficacy",
    "unit of measure": "%",
    "observed result": -6.29
  },
  {
    "compound": "COC(=O)Nc1cc(Nc2cc(NC3CC3)c3ncc(C#N)n3n2)c(Cl)c(N2CCN(C)CC2)c1",
    "metric": "efficacy",
    "unit of measure": "%",
    "observed result": -103
  },
  {
    "compound": "O=C(O)CCC1CCC(c2cc(F)ccc2F)([S+](=O)([O-])c2ccc(Cl)cc2)CC1 (stereo not given)",
    "metric": "efficacy",
    "unit of measure": "%",
    "observed result": -19
  },
  {
    "compound": "Clc1cc2c(NC3CCCC3)nnc(-c3ccncc3)c2cc1Cl",
    "metric": "efficacy",
    "unit of measure": "%",
    "observed result": 14.4
  },
  {
    "compound": "O=C(N[C@H]1CCC[C@H](CO)C1)C1CCN(c2nc3cc(Cl)c(-c4ccc(Cl)cc4)cc3o2)CC1",
    "metric": "efficacy",
    "unit of measure": "%",
    "observed result": -83.2
  },
  {
    "compound": "COc1ccc(CC2c3cc(OC)c(OC)cc3CC[N+]2(C)CCC(=O)OCCCCCOC(=O)CC[N+]2(C)CCc3cc(OC)c(OC)cc3C2Cc2ccc(OC)c(OC)c2)cc1OC (stereo not given) [Atracurium besylate]",
    "metric": "efficacy",
    "unit of measure": "%",
    "observed result": -77.8
  },
  {
    "compound": "Nc1ncc(C(=O)NC2CN(C(=O)C3CC3)C2)c2ccc(-c3cccc(F)c3)nc12",
    "metric": "efficacy",
    "unit of measure": "%",
    "observed result": -23.5
  },
  {
    "compound": "NC(=O)c1cccc2c(NC(CN3CCC3)c3ccc(Cl)c(C(F)(F)F)c3)ncnc12 (stereo not given)",
    "metric": "efficacy",
    "unit of measure": "%",
    "observed result": -116
  }
]

Provide reported efficacy for each item, in the same order as listed.
1. C[C@H](NC1=NC=NC2=C1[NH]C=N2)\C3=N\C4=C(C=C(F)C=C4)C(=O)N3C5=CC=CC=C5
2. C[C@]12CC[C@@H]3c4ccc(O)cc4CC[C@H]3[C@@H]1[C@@H](O)[C@@H](O)[C@@H]2O
3. O=C(c1ccc(Nc2nc(C3CC3)cn3c(-c4cn[nH]c4)cnc23)c(F)c1)N1CCOCC1 [P21d hydrochloride]
4. COC[C@H]1OC(=O)C2=COC3=C2[C@@]1(C)\C4=C(C5CCC(=O)[C@@]5(C)C[C@H]4OC(C)=O)/C3=O (stereo not given in full) [17_-hydroxy Wortmannin]
5. CCN1C(=O)\C(=C/C2=C(C)N=C(N)N=C12)C3=CC=N[NH]3

Result:
1. -38.2
2. -16.1
3. -86.2
4. -43.9
5. -60.4

----------
system: HCT116; experiment: efficacy (fitted maximal change in viability relative to DMSO control); higher = less cytotoxic (negative = loss of viability); conditions: 48 h
metric: efficacy (%)
One number for each entry, in %.

Below, each entry is followed by its recorded efficacy result.
[
  {
    "compound": "CC[C@@H](C)Nc1cc(C(=O)NC2CC3CCC(C2)N3c2ccc(C(=O)C3CC3)cn2)c(C)cc1C(N)=O (some centres undefined) [XL-888]",
    "unit of measure": "%",
    "efficacy": -56.5
  },
  {
    "compound": "CNC1CCCN(C1)C2=C(F)C=C3C(=O)\\C(=C/N(C4CC4)C3=C2OC)C(O)=O (centres undefined) [Balofloxacin]",
    "unit of measure": "%",
    "efficacy": -10.2
  },
  {
    "compound": "CCC(C)N(C)C(=O)c1cc2ccccc2c(-c2ccccc2Cl)n1 (centres undefined)",
    "unit of measure": "%",
    "efficacy": -46.4
  },
  {
    "compound": "Cn1c(=O)c2[nH]cnc2n(C)c1=O [Theophyllamine]",
    "unit of measure": "%",
    "efficacy": -11.6
  },
  {
    "compound": "c1ccc(CNc2nc(NCc3ccccc3)c3ccccc3n2)cc1",
    "unit of measure": "%",
    "efficacy": -98.7
  }
]

Provide reported efficacy for each item, in the same order as listed.
1. CC1(C)Cc2c(-c3ccccc3)c(-c3ccc(Cl)cc3)c(CC(=O)O)n2C1 [Licofelone]
2. C1Cc2[nH]nc(-c3nn[nH]n3)c2C1 [MK-0354]
3. O=C(Nc1cccc(Br)c1)c1cccc([S+](=O)([O-])N2CCCCCC2)c1 [Ak-7]
4. O=C(Nc1c[nH]nc1-c1nc2cc(CN3CCOCC3)ccc2[nH]1)NC1CC1 [AT-9283]

Result:
1. -36.6
2. -7.85
3. -59.7
4. -62.5

----------
Kindly state efficacy for each of the entries shown.
test system: HCT116; experiment: efficacy (fitted maximal change in viability relative to DMSO control); higher = less cytotoxic (negative = loss of viability); details: 48 h;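 further: Luminescence-based viability readout, five doses per compound, normalized against on-plate DMSO and empty-well controls, followed by dose-response curve fitting for every drug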
The reply must contain the numeric value and, after it, the unit.

Below, each entry is followed by its recorded efficacy result.
[
  {
    "molecule": "c1ccc(-c2cc(CCC3CCNCC3)c3ccccc3n2)cc1 [Pipequaline]",
    "efficacy": "-108%"
  },
  {
    "molecule": "CC1=CC(=CC=C1)OC/2=C/NC(=O)/N=C2 [Tolimidone]",
    "efficacy": "6.41%"
  },
  {
    "molecule": "CNC(=O)c1ccccc1Nc1nc(Nc2ccc3c(c2OC)CCC[C@@H](N2CCN(CCO)CC2)C3)ncc1Cl",
    "efficacy": "-110%"
  }
]

Request: // efficacy lookup, key: COc1ccc2c(c[n+](C)c3c4cc5c(cc4ccc23)OCO5)c1OC [Chelerythrine chloride]
Result: -83.2%
